meta.source: paper PMC11480844

B1: H2-Kb / Ed21 (parent complex)
chain 1: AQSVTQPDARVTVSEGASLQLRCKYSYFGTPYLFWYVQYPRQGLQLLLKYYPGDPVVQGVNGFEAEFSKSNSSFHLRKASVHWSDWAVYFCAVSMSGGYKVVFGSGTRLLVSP
chain 2: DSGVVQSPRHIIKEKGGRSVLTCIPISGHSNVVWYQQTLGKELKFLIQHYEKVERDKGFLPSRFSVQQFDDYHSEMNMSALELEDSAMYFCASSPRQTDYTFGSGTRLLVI
chain 3: not shown
chain 4: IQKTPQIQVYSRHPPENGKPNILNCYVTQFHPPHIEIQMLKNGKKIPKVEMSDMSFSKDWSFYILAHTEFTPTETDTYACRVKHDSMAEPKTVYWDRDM
chain 5: SIINFEKL

Variants of: B1
Test: % of reporter cells activated (NFAT-GFP), raw; also: test concentration or dose not given here
experimental-readout: ratio to parent

[
  {
    "mutation-label": "chain 5 I2V",
    "ratio to parent": 1.04
  },
  {
    "mutation-label": "chain 5 K7I",
    "ratio to parent": 0.799
  },
  {
    "mutation-label": "chain 5 I2Y",
    "ratio to parent": 0.814
  }
]

(a) chain 5 I2T
(b) chain 5 L8E
Record comparison, field ratio to parent: mark the lower of a and b . Respond using the label that marks the chosen record.
b

(P) chain 5 I2W
(Q) chain 5 N4A
Hi there, can you help? I need to know whether P or Q has lower measured ratio to parent. Answer = label.
Q
